Target: Human TOP2A (Homo sapiens, UniProt P11388)
Construct: purchased TopoGEN (Buena Vista, CO)
Sequence (P11388 whole entry): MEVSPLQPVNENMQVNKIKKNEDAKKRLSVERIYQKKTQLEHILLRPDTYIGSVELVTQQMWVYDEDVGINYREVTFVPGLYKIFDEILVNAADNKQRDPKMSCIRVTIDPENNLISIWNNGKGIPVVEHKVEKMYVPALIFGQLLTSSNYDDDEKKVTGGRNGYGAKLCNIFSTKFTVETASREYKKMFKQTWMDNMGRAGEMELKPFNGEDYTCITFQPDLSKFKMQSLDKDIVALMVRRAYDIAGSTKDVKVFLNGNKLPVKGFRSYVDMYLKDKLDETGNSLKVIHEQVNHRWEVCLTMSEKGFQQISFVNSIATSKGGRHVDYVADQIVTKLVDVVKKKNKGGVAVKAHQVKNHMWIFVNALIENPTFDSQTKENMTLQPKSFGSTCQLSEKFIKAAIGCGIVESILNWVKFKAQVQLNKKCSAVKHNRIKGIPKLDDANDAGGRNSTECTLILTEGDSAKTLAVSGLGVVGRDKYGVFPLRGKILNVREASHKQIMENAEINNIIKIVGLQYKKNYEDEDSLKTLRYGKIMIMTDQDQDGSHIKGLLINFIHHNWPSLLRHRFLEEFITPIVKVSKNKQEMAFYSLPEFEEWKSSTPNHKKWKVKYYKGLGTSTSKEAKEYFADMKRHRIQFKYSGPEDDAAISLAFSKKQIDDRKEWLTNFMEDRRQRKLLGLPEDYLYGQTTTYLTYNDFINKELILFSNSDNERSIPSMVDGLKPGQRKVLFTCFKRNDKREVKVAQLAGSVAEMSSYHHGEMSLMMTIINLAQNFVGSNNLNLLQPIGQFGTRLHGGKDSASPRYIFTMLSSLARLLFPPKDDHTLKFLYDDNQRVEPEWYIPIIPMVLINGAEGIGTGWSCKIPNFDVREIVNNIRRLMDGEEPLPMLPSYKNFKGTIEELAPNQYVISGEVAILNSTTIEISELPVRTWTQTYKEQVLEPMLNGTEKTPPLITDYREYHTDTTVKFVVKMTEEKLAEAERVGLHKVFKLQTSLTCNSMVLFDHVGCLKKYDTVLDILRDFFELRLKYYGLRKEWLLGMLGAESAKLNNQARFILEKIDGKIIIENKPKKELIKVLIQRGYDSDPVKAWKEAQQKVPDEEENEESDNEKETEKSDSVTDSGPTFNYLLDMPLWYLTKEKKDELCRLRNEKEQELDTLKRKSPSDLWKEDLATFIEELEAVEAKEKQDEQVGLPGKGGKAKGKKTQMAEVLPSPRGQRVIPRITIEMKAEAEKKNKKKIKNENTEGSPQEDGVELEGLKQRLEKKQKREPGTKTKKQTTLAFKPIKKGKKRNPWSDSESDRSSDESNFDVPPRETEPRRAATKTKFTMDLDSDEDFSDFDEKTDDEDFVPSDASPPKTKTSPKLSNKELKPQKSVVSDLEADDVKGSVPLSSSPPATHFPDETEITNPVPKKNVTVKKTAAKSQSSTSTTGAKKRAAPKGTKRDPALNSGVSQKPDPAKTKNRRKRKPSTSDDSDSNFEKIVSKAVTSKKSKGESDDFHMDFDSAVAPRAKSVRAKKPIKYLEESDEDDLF
Experiment: TOP2A DNA decatenation assay (kDNA, agarose gel)
Assay type: biochemical
Conditions: 1 h; Table 1; decatenation, 30 μM fixed concentration; read-out: % Inhibition TOP2A (30 μM)
Property Name: inhibition at 30 µM (%)
Just the number please, in %, no unit attached.

Some compounds with known inhibition at 30 µM results, for comparison:
INSERT INTO measurements (smiles_structure, property_name, numeric_result) VALUES
  ('CC(=O)Nc1ccc2c(-c3cc(C(F)(F)F)ccc3O)ccnc2c1O', 'inhibition at 30 µM', 100),
  ('CC(=O)Nc1ccc2c(-c3cccc(F)c3)ccnc2c1O', 'inhibition at 30 µM', 100),
  ('CC(=O)Nc1ccc2c(-c3cc4ccccc4o3)ccnc2c1O', 'inhibition at 30 µM', 100),
  ('O=C(CCN1CCOCC1)Nc1ccc2c(-c3cc4ccccc4o3)ccnc2c1O', 'inhibition at 30 µM', 83),
  ('CC(=O)Nc1ccc2c(-c3cccs3)ccnc2c1O', 'inhibition at 30 µM', 100);

In: // lookup inhibition at 30 µM for "CC(=O)Nc1ccc2c(-c3ccoc3)ccnc2c1O"
Out: 86

In: Next: "CC(=O)Nc1ccc2c(-c3cc(F)ccc3O)ccnc2c1O"
Out: 99

====

Test system: TOP2A-dependent TCF-transcription in SW620-TOP tumor organoids
Test: TCF (TOPflash) reporter assay in 3D tumor organoids
Assay type: cell-based
Conditions: Homo sapiens, SW-620; Table 2; SW620 tumor organoids, 72 hours; read-out: % TCP inhibition IC50
Property Name: pIC50
Note on units: pIC50 is unitless, being -log10 of a concentration expressed in mol/L.

Some compounds with known pIC50 results, for comparison:
INSERT INTO assay_data (smiles_structure, numeric_result) VALUES
  ('CC(=O)Nc1ccc2c(-c3ccoc3)ccnc2c1O', 5.15),
  ('CC(=O)Nc1ccc2c(-c3cc(F)ccc3O)ccnc2c1O', 5.22);

Now let's try a different one.
In: // lookup pIC50 for "O=C(CCN1CCOCC1)Nc1ccc2c(-c3cc(F)ccc3O)ccnc2c1O"
Out: 5.49

====

// values below are reported EC50
Tested on: vimentin promoter activity (VimPro-GFP) in SW620 cells
Assay: VimPro-GFP EMT reporter assay
Settings: Homo sapiens, SW-620, read-out: Vimentin Down-regulation EC50 (μM)
Just the number please, in µM, no unit attached.

INSERT INTO measurements (molecule, measure_unit, numeric_result) VALUES
  ('CC(=O)Nc1ccc2c(Nc3cc(O)ccc3F)ccnc2c1O [AA-29-171]', 'µM', 26.6),
  ('CC(=O)Nc1ccc2c(Nc3ccccc3)ccnc2c1O [AA-29-148]', 'µM', 25.9),
  ('O=C(CN1CCOCC1)Nc1ccc2c(NC3CCCCC3)ccnc2c1O [AA-34-171]', 'µM', 17.5);

In: // lookup EC50 for CC(=O)Nc1ccc2c(Nc3ccc(C(F)(F)F)cc3)ccnc2c1O [AA-29-158]
Out: 1.36

In: Next: CC(=O)Nc1ccc2c(Nc3cccc(C(F)(F)F)c3)ccnc2c1O [AA-29-157]
Out: 29.9

In: Next: CC(=O)Nc1ccc2c(NC3CCCC3)ccnc2c1O [AA-34-131]
Out: 23

In: Next: CC(=O)Nc1ccc2c(NC3CCC3)ccnc2c1O [AA-34-132]
Out: 27.7

In: Next: CC(=O)Nc1ccc2c(Nc3cccc4[nH]ccc34)ccnc2c1O [AA-29-147]
Out: 14.8

In: Next: CC(=O)Nc1ccc2c(Nc3ccc4[nH]c(C)cc4c3)ccnc2c1O [AA-29-155]
Out: 9.56

In: Next: CC(=O)Nc1ccc2c(NC3CCCCC3)ccnc2c1O [AA-29-216]
Out: 20.6
